Source of measurements: patent US7378436B2

Measurement target: human serotonin transporter (hSERT) (Homo sapiens, UniProt P31645)
Construct: expressed in transfected cells; host or cells: HEK-293
Sequence (P31645 whole entry): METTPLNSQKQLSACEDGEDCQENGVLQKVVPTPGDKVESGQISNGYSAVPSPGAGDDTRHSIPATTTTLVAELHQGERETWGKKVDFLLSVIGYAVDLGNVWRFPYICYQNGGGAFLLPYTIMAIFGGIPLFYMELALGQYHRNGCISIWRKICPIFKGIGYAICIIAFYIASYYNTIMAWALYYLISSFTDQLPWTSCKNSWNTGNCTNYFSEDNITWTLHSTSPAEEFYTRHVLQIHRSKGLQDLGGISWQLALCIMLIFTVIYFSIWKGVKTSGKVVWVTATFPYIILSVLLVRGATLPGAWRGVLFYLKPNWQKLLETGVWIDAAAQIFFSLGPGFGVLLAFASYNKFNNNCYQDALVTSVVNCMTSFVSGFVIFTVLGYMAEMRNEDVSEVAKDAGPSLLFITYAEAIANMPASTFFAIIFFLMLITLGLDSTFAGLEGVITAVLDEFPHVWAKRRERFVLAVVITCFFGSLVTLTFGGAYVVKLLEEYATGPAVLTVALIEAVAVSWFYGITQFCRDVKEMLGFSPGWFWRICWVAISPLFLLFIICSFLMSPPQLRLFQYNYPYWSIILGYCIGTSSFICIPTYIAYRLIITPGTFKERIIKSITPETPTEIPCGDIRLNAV
Procedure details: Inhibition of 3H-serotonin uptake in HEK-293 cells expressing hSERT
Assay type: cell-based
Experimental setup: HEK-293 cells with hSERT; 3H-5HT 50 nM; 5 min incubation at 25° C.; read-out: SRI IC50
pIC50: −log10 of the molar value. Counter-ions that a name gives are not always drawn.
pIC50 of 8 or higher: t. Under 8: f.

Answered examples (3):
Compound	Category label
CC(C)CN(C(=O)c1ccc2ccccc2c1)[C@H]1CCNC1 [Example 11, hydrochloride]	t
CC(C)CN(C(=O)c1ccc(Cl)cc1)[C@H]1CCNC1 [Example 7]	t
CC(C)CN(C(=O)c1cccc(Cl)c1)[C@H]1CCNC1 [Example 6]	f

Ask | Could you tell me if the measured pIC50 of O=C(c1ccccc1)N(Cc1ccc2ccccc2c1)[C@H]1CCNC1 [Example 9, hydrochloride] reaches 8 or more?
Reply | t

Ask | Could you tell me if the measured pIC50 of O=C(c1ccc(Cl)cc1)N(Cc1cccc(Cl)c1Cl)[C@@H]1CCNC1 [Example 14, hydrochloride] reaches 8 or more?
Reply | f

Ask | Could you tell me if the measured pIC50 of Cc1cccc(C(=O)N(CC(C)C)[C@H]2CCNC2)c1Cl [Example 3] reaches 8 or more?
Reply | f
